- target or test system: Platelet-derived growth factor receptor beta (Homo sapiens, UniProt P09619)
- Sequence (P09619 whole entry): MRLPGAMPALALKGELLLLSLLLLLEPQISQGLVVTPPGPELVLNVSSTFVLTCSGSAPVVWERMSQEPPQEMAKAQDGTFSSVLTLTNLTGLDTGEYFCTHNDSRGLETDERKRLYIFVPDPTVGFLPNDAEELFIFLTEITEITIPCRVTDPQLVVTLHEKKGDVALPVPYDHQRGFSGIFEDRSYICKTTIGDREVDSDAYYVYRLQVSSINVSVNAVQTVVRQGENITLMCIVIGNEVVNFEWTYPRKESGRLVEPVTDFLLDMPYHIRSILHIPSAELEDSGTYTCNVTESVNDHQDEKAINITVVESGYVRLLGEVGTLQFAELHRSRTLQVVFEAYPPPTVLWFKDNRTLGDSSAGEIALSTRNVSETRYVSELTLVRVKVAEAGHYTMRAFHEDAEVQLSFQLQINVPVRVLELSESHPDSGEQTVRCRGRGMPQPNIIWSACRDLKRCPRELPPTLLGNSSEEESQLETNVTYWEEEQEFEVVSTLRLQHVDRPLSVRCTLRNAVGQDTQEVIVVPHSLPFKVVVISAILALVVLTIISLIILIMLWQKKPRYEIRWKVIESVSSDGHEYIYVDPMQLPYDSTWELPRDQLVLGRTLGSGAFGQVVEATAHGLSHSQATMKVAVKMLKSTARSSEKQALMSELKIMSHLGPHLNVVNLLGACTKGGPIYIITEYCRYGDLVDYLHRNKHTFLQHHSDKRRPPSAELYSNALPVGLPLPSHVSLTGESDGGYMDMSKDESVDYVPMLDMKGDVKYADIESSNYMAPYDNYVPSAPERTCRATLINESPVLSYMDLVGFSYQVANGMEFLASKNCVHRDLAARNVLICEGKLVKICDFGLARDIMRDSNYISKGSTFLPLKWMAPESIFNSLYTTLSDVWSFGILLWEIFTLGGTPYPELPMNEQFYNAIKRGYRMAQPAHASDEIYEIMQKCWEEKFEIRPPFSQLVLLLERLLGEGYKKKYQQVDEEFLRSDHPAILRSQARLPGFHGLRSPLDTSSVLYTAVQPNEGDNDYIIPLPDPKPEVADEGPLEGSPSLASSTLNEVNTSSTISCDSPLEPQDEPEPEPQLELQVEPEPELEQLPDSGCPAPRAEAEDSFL
readout name: IC50

Notebook: "CCOC(=O)C1=C2C(=NC1=O)c1cccc3cccc2c13" , IC50 read as > 10 µM

====

- target or test system: UniProt:Q04912
- Sequence (Q04912 25-304 limits assumed): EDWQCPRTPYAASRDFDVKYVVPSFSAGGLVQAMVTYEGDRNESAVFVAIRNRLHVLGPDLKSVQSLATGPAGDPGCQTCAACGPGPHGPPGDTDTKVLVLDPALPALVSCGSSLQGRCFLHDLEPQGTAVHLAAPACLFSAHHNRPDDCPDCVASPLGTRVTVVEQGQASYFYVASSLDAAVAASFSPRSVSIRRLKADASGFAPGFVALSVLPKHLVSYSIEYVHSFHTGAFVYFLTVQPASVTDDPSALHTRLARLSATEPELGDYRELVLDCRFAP
- Sequence (Q04912 310-1400 limits assumed): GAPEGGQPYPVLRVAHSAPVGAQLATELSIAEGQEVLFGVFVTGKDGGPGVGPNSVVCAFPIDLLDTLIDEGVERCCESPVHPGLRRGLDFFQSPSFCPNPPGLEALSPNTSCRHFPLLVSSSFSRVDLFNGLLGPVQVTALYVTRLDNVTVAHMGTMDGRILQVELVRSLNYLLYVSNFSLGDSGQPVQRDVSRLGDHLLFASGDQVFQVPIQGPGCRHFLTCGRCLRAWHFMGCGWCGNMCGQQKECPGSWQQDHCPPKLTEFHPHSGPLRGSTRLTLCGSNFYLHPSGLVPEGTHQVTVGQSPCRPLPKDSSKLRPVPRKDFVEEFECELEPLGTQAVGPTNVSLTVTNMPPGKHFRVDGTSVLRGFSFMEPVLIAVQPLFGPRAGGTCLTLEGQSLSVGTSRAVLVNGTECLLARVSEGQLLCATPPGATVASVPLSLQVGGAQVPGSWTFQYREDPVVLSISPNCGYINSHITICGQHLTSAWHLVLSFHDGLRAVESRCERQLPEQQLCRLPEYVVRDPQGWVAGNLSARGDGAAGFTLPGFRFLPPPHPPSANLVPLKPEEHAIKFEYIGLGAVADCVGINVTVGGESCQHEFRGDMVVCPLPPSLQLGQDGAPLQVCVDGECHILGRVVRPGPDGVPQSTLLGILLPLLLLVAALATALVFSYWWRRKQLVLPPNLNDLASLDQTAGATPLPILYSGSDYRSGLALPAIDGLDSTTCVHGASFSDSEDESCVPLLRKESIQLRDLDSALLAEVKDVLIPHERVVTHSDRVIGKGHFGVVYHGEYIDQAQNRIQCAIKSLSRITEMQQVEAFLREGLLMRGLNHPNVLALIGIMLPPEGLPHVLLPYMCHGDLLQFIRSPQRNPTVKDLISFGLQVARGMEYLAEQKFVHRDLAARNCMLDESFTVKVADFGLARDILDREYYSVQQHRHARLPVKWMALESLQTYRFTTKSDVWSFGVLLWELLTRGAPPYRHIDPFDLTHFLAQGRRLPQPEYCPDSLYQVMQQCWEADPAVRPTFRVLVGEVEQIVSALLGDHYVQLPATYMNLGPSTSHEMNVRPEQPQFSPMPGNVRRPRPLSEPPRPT
pIC50: −log10 of the molar value.
readout name: pIC50

Notebook: "CCOC(=O)C1=C2C(=NC1=O)c1cccc3cccc2c13" , pIC50 read as < 5.00

====

Reported values of pIC50 for individual entries
- Tested on: BXPC-3
- assay overview: Antiproliferative activity against human BxPC3 cells expressing FGFR after 72 hrs by SRB assay
- Type: functional, cell-based
- cond: BXPC-3, 72 h
Reminder that pIC50 means the negative base-10 logarithm of the concentration expressed in mol/L.

Answered cases to consult:
INSERT INTO assay_data (mol, numeric_readout) VALUES
  ('N#CC1=C2C(=NC1=O)c1cccc3cccc2c13', 4.60),
  ('C=CCSc1ccc2c3c(cccc13)C1=NC(=O)C(C(=O)OCC(=O)SCCC)=C12', 4.86);

Would you kindly look at the next entry?
Lab entry: BXPC-3 assay, compound "C=CCSc1ccc2c3c(cccc13)C1=NC(=O)C(C(=O)OCC(=O)OCC(F)(F)C(F)(F)F)=C12" , pIC50 = 4.41

====

Values of IC50 reported for Fibroblast growth factor receptor 1 (Homo sapiens, UniProt P11362) appear below.

Answered cases to consult:
INSERT INTO measurements (compound, readout_name, result) VALUES
  ('C=CCOC(=O)C1=C2C(=NC1=O)c1cccc3c(SCC=C)ccc2c13', 'IC50', '0.216 µM'),
  ('CC1OCCC1Sc1ccc2c3c(cccc13)C1=NC(=O)C(C#N)=C12 (centres undefined)', 'IC50', '> 10 µM'),
  ('C=CCOC(=O)C1=C2C(=NC1=O)c1cccc3cccc2c13', 'IC50', '0.019 µM'),
  ('CCCSc1ccc2c3c(cccc13)C1=NC(=O)C(C(=O)OCC)=C12', 'IC50', '> 10 µM'),
  ('C=CCOC(=O)C1=C2C(=NC1=O)c1cccc3c(SCCC)ccc2c13', 'IC50', '> 10 µM');

Notebook: "C=CCSc1ccc2c3c(cccc13)C1=NC(=O)C(C(=O)OCC(=O)OCC(F)(F)C(F)(F)F)=C12" , IC50 read as 0.424 µM

Notebook: "N#CC1=C2C(=NC1=O)c1cccc3c(SCCc4cnccn4)ccc2c13" , IC50 read as > 10 µM

Notebook: CC(Sc1ccc2c3c(cccc13)C1=NC(=O)C(C#N)=C12)C1(C)CSCO1 (centres undefined) , IC50 read as 3.6 µM

Notebook: CCOC(=O)C1=C2C(=NC1=O)c1cccc3c(SC(C)C4(C)CSCO4)ccc2c13 (centres undefined) , IC50 read as > 10 µM

Notebook: "C=CCSc1ccc2c3c(cccc13)C1=NC(=O)C(C(=O)OCC)=C12" , IC50 read as 0.485 µM

Notebook: "CCCSC(=O)COC(=O)C1=C2C(=NC1=O)c1cccc3c(SCCC)ccc2c13" , IC50 read as > 10 µM

Notebook: "N#CC1=C2C(=NC1=O)c1cccc3c(SCCO)ccc2c13" , IC50 read as > 10 µM

Notebook: "C=CCSc1ccc2c3c(cccc13)C1=NC(=O)C(C#N)=C12" , IC50 read as > 10 µM

Notebook: "CCOC(=O)C1=C2C(=NC1=O)c1cccc3c(SC(C)C)ccc2c13" , IC50 read as > 10 µM
